- assay-info: Tmax in BALB/c mouse at 50 mg/kg, ip by LC-MS/MS analysis
- Assay type: ADME, organism-based
- measurement-setup: in vivo
measure: Tmax (min)
Output spec: scalar in min, unitless text.

Consider the compound shown here: O=C(CCCSSCCOCCOCCOc1cc(O)c(C(=O)CCc2ccc(O)cc2)c(O)c1)OCn1cc(F)c(=O)[nH]c1=O What is its recorded Tmax?
45

* * *

- assay-info: Drug degradation in 5 uM GSH after 48 hrs
- Type: ADME
- measurement-setup: read-out: Drug degradation
measure: degraded at 48 h (%)
Your answer should be a plain number; it is taken to be in %.

For O=C(CCCSSCCOCCOCCOc1cc(O)c(C(=O)CCc2ccc(O)cc2)c(O)c1)OCn1cc(F)c(=O)[nH]c1=O , what is its reported degraded at 48 h?
30
